Hey, just so you know, these numbers are from paper PMC11672294.

tested on: HT29; settings: 72 h, relative to DMSO; 10 µM
Counter-ions that a name gives are not always drawn.
Recorded Relative cell viability (%), one value per entry.
readout_kind: Relative cell viability (%)

{"compound": "CCN1CCN(C(=O)N[C@@H](C(=O)N[C@@H]2C(=O)N3[C@@H]2SC(C)(C)[C@@H]3C(=O)O)c2ccccc2)C(=O)C1=O [Piperacillin Sodium]", "result": "73.94%"}
{"compound": "C[C@]12CC[C@H](O)CC1=CC[C@@H]1[C@@H]2CC[C@]2(C)C(n3cnc4ccccc43)=CC[C@@H]12 [Galeterone]", "result": "25.73%"}
{"compound": "CC[C@H]1[C@@H](O)[C@@H]2[C@H](CC[C@]3(C)[C@@H]([C@H](C)CCC(=O)O)CC[C@@H]23)[C@@]2(C)CC[C@@H](O)C[C@@H]12 [Obeticholic Acid]", "result": "111.1%"}
{"compound": "OC(CCCN1CCCCC1)(c1ccccc1)c1ccccc1 [Diphenidol HCl]", "result": "59.39%"}
{"compound": "Oc1c(Br)cc(Br)c2cccnc12 [Broxyquinoline]", "result": "83.94%"}
{"compound": "CC(S)C(=O)NCC(=O)O (stereo not drawn) [Tiopronin]", "result": "149.2%"}
{"compound": "CC(C(=O)O)c1ccc2c(c1)Cc1cccnc1O2 (stereo not drawn) [Pranoprofen]", "result": "135%"}
{"compound": "O=C(O)CCCN1CCC(O[C@@H](c2ccc(Cl)cc2)c2ccccn2)CC1 [Bepotastine Besilate]", "result": "89.81%"}
{"compound": "Fc1ccc([C@@H]2CCNC[C@H]2COc2ccc3c(c2)OCO3)cc1 [Paroxetine HCl]", "result": "19.9%"}
{"compound": "CCCS(=O)(=O)Nc1ccc(F)c(C(=O)c2c[nH]c3ncc(-c4ccc(Cl)cc4)cc23)c1F [Vemurafenib (PLX4032, RG7204)]", "result": "36.92%"}
{"compound": "CCS(=O)(=O)N1CCN(c2ccc(Nc3ncc(C(N)=O)c(NC4CC4)n3)cc2)CC1 [Cerdulatinib (PRT062070, PRT2070)]", "result": "36.75%"}
{"compound": "CN1[C@@H]2CC[C@H]1C[C@@H](OC(=O)c1c[nH]c3ccccc13)C2 [Tropisetron]", "result": "115.5%"}
{"compound": "CCCCc1nc(Cl)c(CO)n1Cc1ccc(-c2ccccc2-c2nn[nH]n2)cc1 [Losartan Potassium (DuP 753)]", "result": "88.32%"}
{"compound": "Nc1nnc(-c2cccc(Cl)c2Cl)c(N)n1 [Lamotrigine]", "result": "100%"}
{"compound": "CCN1CCN(c2cc3c(cc2F)c(=O)c(C(=O)O)cn3C2CC2)CC1 [Enrofloxacin]", "result": "78.16%"}
{"compound": "O=C(O)c1cccnc1 [Nicotinic Acid]", "result": "70.34%"}
{"compound": "OCCOCCN1CCN(C2=Nc3ccccc3Sc3ccccc32)CC1 [Quetiapine Fumarate]", "result": "47.46%"}
{"compound": "COCCc1ccc(OCC(O)CNC(C)C)cc1 (stereo not drawn) [Metoprolol Tartrate]", "result": "94.49%"}
